Values from patent US20080044844A1

- Test system: Fiu promoter
- Format: cell-based, E. coli
Quick rule: Cmax of at least 100 mg/L means Satisfied, below that means Not satisfied.

Example results:
COMPOUND	CLASS
Oc1cc(Cl)c(Cl)cc1Cl [2,4,5-Trichlorophenol]	Not satisfied
Oc1ccccc1Cl [2-Chlorophenol]	Satisfied
Oc1c(Cl)cccc1Cl [2,6-Dichlorophenol]	Satisfied

Input: Reported Cmax at or above 100 mg/L? COc1cc2c(c(OC)c1OC)-c1ccc(OC)c(=O)cc1[C@@H](NC(C)=O)CC2 [Colchicine]
Output: Not satisfied

Input: Test whether the compound C[n+]1ccc(-c2cc[n+](C)cc2)cc1 [Paraquat] records Cmax of 100 mg/L or higher.
Output: Satisfied

* * *

- Test system: GrpE promoter
- Type: cell-based, E. coli
Catalogue of ΔLmax values

Use the examples below as a reference point.
ITEM_SMILES	READOUT_VALUE
Oc1ccccc1Cl	33,345 RLU
COP(=O)(OC)OC=C(Cl)Cl	5,290 RLU
Oc1cc(Cl)c(Cl)cc1Cl	54,432 RLU

Proceeding to the next molecule to report its ΔLmax.
Input: Checklist item: ΔLmax tested on GrpE promoter, entry Oc1c(Cl)cccc1Cl , value?
Output: 47,877 RLU

* * *

- System: Fiu promoter
- Format: cell-based, E. coli
REPORTED_ENDPOINT: tmax (second value, time to reach ΔLmax)

MOLECULE	REPORTED_ENDPOINT	READOUT_VALUE
Oc1cc(Cl)c(Cl)cc1Cl [2,4,5-Trichlorophenol]	tmax (second value, time to reach ΔLmax)	30/120 min
Oc1ccccc1Cl [2-Chlorophenol]	tmax (second value, time to reach ΔLmax)	90/120 min
C[n+]1ccc(-c2cc[n+](C)cc2)cc1 [Paraquat]	tmax (second value, time to reach ΔLmax)	120/60 min
COc1cc2c(c(OC)c1OC)-c1ccc(OC)c(=O)cc1[C@@H](NC(C)=O)CC2 [Colchicine]	tmax (second value, time to reach ΔLmax)	120/120 min

# ---- query molecule ----
Input: Which tmax (second value, time to reach ΔLmax) is reported for this molecule? Oc1c(Cl)cccc1Cl [2,6-Dichlorophenol]
Output: 30/120 min
